Recorded measurements of IC50, one per entry
test system: A-375; assay: Cytotoxicity against human A375 cells by MTT assay; type: functional, cell-based
// note: answer is a bare numeric in µM

- CCN(CC)CCCNCc1cc2c3ccccc3n(Cc3ccc(F)cc3)c2cn1: 13.7
- CCN(CC)CCCNCc1cc2c3ccccc3n(CCCc3ccccc3)c2cn1: 8.9

API: the following record is the query input.
Requested read-out: IC50. Entry: "CCN(CC)CCCCNCc1cc2c3ccccc3n(Cc3cccc(Cl)c3)c2cn1"
12.6
